# System: BDF1 mice, P388 leukemia ip, median survival T/C
# method summary: NCI In Vivo Anticancer Drug Screen. Data for tumor model P388 Leukemia (intraperitoneal) in B6D2F1 (BDF1) mice
# experimental context: endpoint: median survival time; dose: 25.0 mg/kg/injection; schedule: Q04DX003 (ip); vehicle: saline with Tween-80
Inconclusive results and toxic doses are left out. How the source made its calls: active means survival T/C of 150% or more; inactive means T/C below 125% in these data.
I would appreciate it if you answered using one of these outcomes: 1 for active, -1 for inactive

[ask] Per the records of this test, what outcome belongs to Nc1ccc(S(=O)(=O)Nc2ccc([N+](=O)[O-])cc2)cc1 ?
[reply] -1

[ask] Per the records of this test, what outcome belongs to COC1CCC2=C(C1)C(=O)CC1c3ccccc3CN21 (configuration not stated) ?
[reply] -1

[ask] Per the records of this test, what outcome belongs to CC(C)(O)C1C2OC(=O)C1C1(O)CC3OC34C(=O)OC2C14C (configuration not stated) ?
[reply] -1

[ask] Per the records of this test, what outcome belongs to CC(=O)OCCN1CCN(CCCN2c3ccccc3Sc3ccc(C(F)(F)F)cc32)CC1 ?
[reply] -1

[ask] Per the records of this test, what outcome belongs to CN(C)CCOc1cccc(OCCN(C)C)n1 ?
[reply] -1

[ask] Per the records of this test, what outcome belongs to C[N+](C)(Cc1ccccc1)CC(O)COc1ccccc1 (configuration not stated) ?
[reply] -1

[ask] Per the records of this test, what outcome belongs to CCCC(=O)OCC1OC(n2cnc3c(=S)nc(N)[nH]c32)C(OC(=O)CCC)C1OC(=O)CCC (configuration not stated) ?
[reply] 1

----------
# Test system: BDF1 mice, P388 leukemia ip, median survival T/C
# method summary: NCI In Vivo Anticancer Drug Screen. Data for tumor model P388 Leukemia (intraperitoneal) in B6D2F1 (BDF1) mice
# experimental context: endpoint: median survival time; dose: 100.0 mg/kg/injection; schedule: Q01DX001 (ip); vehicle: saline with Tween-80; higher = longer survival
# Method: The antitumor activity of compounds was measured in mice bearing transplantable tumors. Survival or tumor size were measured and the results are expressed as the measurement made in the treated group (T) divided by the measurement made in the vehicle treated control group (C). The tumor model used in this assay is P388 Leukemia (intraperitoneal) in B6D2F1 (BDF1) mice
Toxic doses and inconclusive results are not listed.
Record form. Attribute: T/C. Fill in for each entry.

[ask] Requested read-out: T/C. Entry: Cc1ccc(CC2c3ccccc3Nc3ccccc32)cc1
[reply] 86 % of control

[ask] Requested read-out: T/C. Entry: CCC(=O)Nc1cccc(Cl)c1
[reply] 109 % of control

[ask] Requested read-out: T/C. Entry: NNC(=O)c1ccc(Cl)cc1Nc1cccc(Cl)c1
[reply] 100 % of control

[ask] Requested read-out: T/C. Entry: CC(Nc1ccccc1)(C(N)=O)c1ccccc1 (configuration not stated)
[reply] 95 % of control

[ask] Requested read-out: T/C. Entry: CCCCCCCCCC(=O)NN1CCOCC1
[reply] 104 % of control

[ask] Requested read-out: T/C. Entry: CSc1c(C)[nH]c2ccc([N+](=O)[O-])cc12
[reply] 100 % of control

[ask] Requested read-out: T/C. Entry: CN(C)C(=O)Nc1ccc(Cl)cc1
[reply] 100 % of control

[ask] Requested read-out: T/C. Entry: N#CC(/C=C/c1ccccc1)Nc1ccccc1C(N)=O (configuration not stated)
[reply] 100 % of control

[ask] Requested read-out: T/C. Entry: O=C1C(C2CCCCC2)CCCC1C1CCCCC1 (configuration not stated)
[reply] 107 % of control

[ask] Requested read-out: T/C. Entry: CN(C)c1ccc(/C=C2\NC(=O)NC2=O)cc1
[reply] 103 % of control

[ask] Requested read-out: T/C. Entry: CC(C(Nc1ccc(C(=O)O)cc1)C(F)(F)C(F)(F)C(F)(F)F)[N+](=O)[O-] (configuration not stated)
[reply] 95 % of control

[ask] Requested read-out: T/C. Entry: O=C1CN=C(c2ccc[nH]2)c2cc(Cl)ccc2N1
[reply] 95 % of control

----------
# Test system: BDF1 mice, P388 leukemia ip, median survival T/C
# method summary: NCI In Vivo Anticancer Drug Screen. Data for tumor model P388 Leukemia (intraperitoneal) in B6D2F1 (BDF1) mice
# experimental context: endpoint: median survival time; dose: 50.0 mg/kg/injection; schedule: Q01DX009 (ip); vehicle: other; higher = longer survival
Toxic doses and inconclusive results are not listed.
Record form. Attribute: T/C. Fill in for each entry.

[ask] Requested read-out: T/C. Entry: COc1cccc(/C=C/C(=O)c2ccc(Cl)cc2)c1OC
[reply] 95 % of control

[ask] Requested read-out: T/C. Entry: O=S(c1ccccc1)C1Cc2ccccc2C1Cl (stereo not drawn)
[reply] 107 % of control

[ask] Requested read-out: T/C. Entry: COc1ccc(Br)c(C=O)c1OS(=O)(=O)c1ccc(C)cc1
[reply] 110 % of control

[ask] Requested read-out: T/C. Entry: Cc1ccc(S(=O)CC(Cl)c2ccccc2)cc1 (stereo not drawn)
[reply] 105 % of control

[ask] Requested read-out: T/C. Entry: CC(=O)c1ccc2ccccc2c1OC(=O)c1cccnc1
[reply] 100 % of control

[ask] Requested read-out: T/C. Entry: C=C1C(=O)OC2/C=C(\C)C3(O)C=CC(C)(CC(OC(=O)C(C)C)C12)O3 (stereo not drawn)
[reply] 161 % of control

[ask] Requested read-out: T/C. Entry: CSc1ccccc1C(C)(C)O
[reply] 100 % of control

[ask] Requested read-out: T/C. Entry: COc1cc2c[n+](C)c3c4cc(OC)c(OC)cc4ccc3c2cc1OC
[reply] 174 % of control

----------
# System: BDF1 mice, P388 leukemia ip, median survival T/C
# method summary: NCI In Vivo Anticancer Drug Screen. Data for tumor model P388 Leukemia (intraperitoneal) in B6D2F1 (BDF1) mice
# experimental context: endpoint: median survival time; dose: 400.0 mg/kg/injection; schedule: Q01DX009 (ip); vehicle: saline with Tween-80; higher = longer survival
Toxic doses and inconclusive results are not listed.
quantity kind: T/C

[ask] Form: Entry = Cc1ccc(C(=O)/C=C\c2ccccc2)cc1 | System = BDF1 mice, P388 leukemia ip, median survival T/C | T/C = ____
[reply] 104 % of control

[ask] Form: Entry = CCCCCCCCCCCCCCCCOc1ccccc1CNc1cccc(S(=O)(=O)F)c1 | System = BDF1 mice, P388 leukemia ip, median survival T/C | T/C = ____
[reply] 95 % of control

[ask] Form: Entry = ClCCN=Cc1ccc(Cl)cc1 | System = BDF1 mice, P388 leukemia ip, median survival T/C | T/C = ____
[reply] 120 % of control

[ask] Form: Entry = Cc1ccc(C(=O)O)cc1S(=O)(=O)F | System = BDF1 mice, P388 leukemia ip, median survival T/C | T/C = ____
[reply] 123 % of control

[ask] Form: Entry = NC(=O)CC(NC(=O)OCc1ccccc1)c1nn[nH]n1 (configuration not stated) | System = BDF1 mice, P388 leukemia ip, median survival T/C | T/C = ____
[reply] 95 % of control

[ask] Form: Entry = CCOC(=O)C(=CNc1ccccc1OC)C(=O)OCC | System = BDF1 mice, P388 leukemia ip, median survival T/C | T/C = ____
[reply] 106 % of control

[ask] Form: Entry = O=C(O)CNC(=O)c1ccc([N+](=O)[O-])cc1 | System = BDF1 mice, P388 leukemia ip, median survival T/C | T/C = ____
[reply] 86 % of control

[ask] Form: Entry = CC1(c2ccco2)NC(=O)NC1=O (configuration not stated) | System = BDF1 mice, P388 leukemia ip, median survival T/C | T/C = ____
[reply] 105 % of control

[ask] Form: Entry = COc1cc(/C=N/Nc2ccc([N+](=O)[O-])cc2)cc(OC)c1OC | System = BDF1 mice, P388 leukemia ip, median survival T/C | T/C = ____
[reply] 100 % of control

[ask] Form: Entry = O=C(NCc1cnccn1)Oc1ccc([N+](=O)[O-])cc1 | System = BDF1 mice, P388 leukemia ip, median survival T/C | T/C = ____
[reply] 97 % of control

[ask] Form: Entry = CSc1ncc(Br)c(C(=O)O)n1 | System = BDF1 mice, P388 leukemia ip, median survival T/C | T/C = ____
[reply] 104 % of control

[ask] Form: Entry = Cc1ccc2oc(-c3ccccc3)c(O)c(=O)c2c1 | System = BDF1 mice, P388 leukemia ip, median survival T/C | T/C = ____
[reply] 90 % of control

----------
# Tested on: BDF1 mice, P388 leukemia ip, median survival T/C
# method summary: NCI In Vivo Anticancer Drug Screen. Data for tumor model P388 Leukemia (intraperitoneal) in B6D2F1 (BDF1) mice
# experimental context: endpoint: median survival time; dose: 100.0 mg/kg/injection; schedule: Q01DX009 (ip); vehicle: saline with Tween-80; higher = longer survival
Toxic doses and inconclusive results are not listed.
quantity kind: T/C

[ask] Requested read-out: T/C. Entry: CN1CCC/C(=C(/N)c2ccccc2)S1(=O)=O
[reply] 100 % of control

[ask] Requested read-out: T/C. Entry: O=C(N1CCCC1)C(F)(F)C(F)(F)C(F)(F)F
[reply] 99 % of control

[ask] Requested read-out: T/C. Entry: CCOC(=O)c1cnn2c(SC)ncnc12
[reply] 99 % of control

[ask] Requested read-out: T/C. Entry: CC(C)(C)[N]1[Si](C)(C)[N](C(C)(C)C)[Sn]12[S][Sn]1([S]2)[N](C(C)(C)C)[Si](C)(C)[N]1C(C)(C)C
[reply] 94 % of control

[ask] Requested read-out: T/C. Entry: O=C1N=C(C(F)(F)F)N=C1c1[nH]c(C(F)(F)F)nc1O
[reply] 102 % of control

[ask] Requested read-out: T/C. Entry: O=C(NC(=S)N1CC1)c1ccccc1
[reply] 92 % of control
